The values you see were collected from ChEMBL document CHEMBL5143545.

- Tested on: Human immunodeficiency virus 1
- Type: functional, organism-based
- settings: Human immunodeficiency virus 1, MT4
For each of the molecules below, state its EC50.

smi	EC50
Cc1cc(C)cc(S(=O)(=O)c2c(C(=O)NC3CCN(Cc4cccc(B(O)O)c4)CC3)[nH]c3ccc(Cl)cc23)c1	> 6.43 µM
Cc1cc(C)cc(S(=O)(=O)c2c(C(=O)Nc3cccc(B(O)O)c3)[nH]c3ccc(Cl)cc23)c1	> 5.3 µM
Cc1cc(C)cc(S(=O)(=O)c2c(C(=O)Nc3ccc4c(c3)B(O)OC4)[nH]c3ccc(Cl)cc23)c1	> 1.96 µM
Cc1ccnc2c1NC(=O)c1cccnc1N2C1CC1	> 1500 µM
Cc1cc(C)cc(S(=O)(=O)c2c(C(=O)Nc3ccc(B(O)O)cc3)[nH]c3ccc(Cl)cc23)c1	> 1.62 µM

Now consider the entry below.
Entry `Cc1cc(C)cc(S(=O)(=O)c2c(C(=O)NC3CCN(Cc4ccc(B(O)O)cc4)CC3)[nH]c3ccc(Cl)cc23)c1` has what EC50?
> 19.3 µM
